Here the recorded cytotoxicity at 70.5 h is given for each entry.
- Procedure Text: Human HepG2 cell viability assay in 384 well format
- Assay type: toxicity, cell-based
- Design: dose 125 nL, time 70.5 hour; concentration not given beside the values
- Condition: HepG2 cells, read-out: Inhibition
Measurement Label: cytotoxicity at 70.5 h

INSERT INTO results (compound, test_value) VALUES
  ('Cc1cccc(CNCCOc2ccc(S(C)(=O)=O)cc2)c1', '-0.853%'),
  ('CCC(O)CN1CCN(C(=O)c2cccc3[nH]ncc23)CC1 (stereo unspecified)', '-10.6%'),
  ('CCN(CC1COc2ccccc2O1)C(=O)CCn1cncn1 (stereo unspecified)', '-5.89%'),
  ('CC(=O)N1CCN(C(=O)Cc2cnc(-c3c(Cl)cccc3Cl)s2)CC1', '-13.6%'),
  ('CC(C)c1ccc(CC(=O)N2CCCC3(CN(C)C(=O)O3)C2)cc1 (stereo unspecified)', '22.5%'),
  ('Cc1ccccc1CNC(=O)c1ccccc1-n1cc(CN)cn1', '-8.06%'),
  ('Cc1nnc(CNCC2(O)CCCN(Cc3ccc(F)c(F)c3)C2=O)[nH]1 (stereo unspecified)', '-0.578%'),
  ('CC(Cn1cc(Br)cn1)C(=O)Nc1ccncc1 (stereo unspecified)', '6.88%'),
  ('COc1ccnc(N2CCN(C(=O)c3cnc(C4CC4)s3)CC2)n1', '-5.21%'),
  ('COC(=O)c1cc(C(=O)N2CCCC(C)C2)n(-c2ccccc2)n1 (stereo unspecified)', '-10.2%'),
  ('Cn1cc(C2CCCN2C(=O)CCCOc2ccc(F)cc2F)cn1 (stereo unspecified)', '-11.3%');
